system: LXFL 529; assay: NCI tumour cell line growth inhibition, 48 h
Activity calls are given as the source filed them. No stated cut-off is given here; in the data, active = GI50 up to about 1.1 µM and inactive = higher.
Select the correct class. Options are active, inactive and nothing else.

Use the examples below as a reference point.
*Q* Per the records of this test, what outcome belongs to CCN(CC)CC(O)CNc1ccc(NCC2CO2)c2c1C(=O)c1ccccc1C2=O (centres undefined) ?
*A* active

*Q* Query CC1(C(=O)Nc2ccc3cc4ccccc4cc3c2)CC2(C)CC(C)(C1)C(O)NC2=O (centres undefined) next
*A* inactive

*Q* What would you report for Cc1cc(=O)oc2c1cc1ccc3cccc4ccc2c1c34 ?
*A* inactive

*Q* Same question for CC(C)N1CC2CC(CN(C(=O)c3ccc(Cl)cc3)C2)C1 please.
*A* inactive

*Q* Can you handle N#Cc1c(-c2ccccc2)c(-c2ccccc2)cc2c(=O)c3ccc(Cl)cc3[nH]c12 next?
*A* inactive

---
*Q* Which outcome did this test record for the compound O=C1[C@@H]2C(c3ccccc3Br)=NO[C@@H]2C(=O)N1c1ccc(Cc2ccc(N3C(=O)[C@H]4C(c5ccccc5Br)=NO[C@H]4C3=O)cc2)cc1 ?
*A* inactive

*Q* Then CN(C)C=C1C(=O)N(C)C(=O)N(C)C1=O ?
*A* inactive

*Q* And the next one, CC(=O)OC1CC2CCN3C(=O)c4cc5c(cc4[C@H](C1OC(C)=O)C23)OCO5 (some centres undefined) ?
*A* inactive

*Q* Next up: c1ccc2c3c([nH]c2c1)C1C2CCCCN2C(c2ccncc2)N1CC3 (centres undefined)
*A* inactive

====

tested on: OVCAR-4; assay: NCI tumour cell line growth inhibition, 48 h
Calls of active or inactive are those of the source. No stated cut-off is given here; in the data, active = GI50 up to about 1.1 µM and inactive = higher.
Documented GI50 across a set of compounds

*Q* Entry Cc1ccc(S(=O)(=O)N/N=C2\CCCCCCCCCCC2CN(C)C)cc1 (stereo not given) has what GI50?
*A* 18 µM (inactive)

*Q* // query: O=C(Nc1c(Cl)cc([N+](=O)[O-])cc1Cl)C(=O)C(C(=O)c1ccncc1)C1OC(=O)c2ccccc21 (stereo not given)
*A* > 100 µM (inactive)

*Q* Cool, now C=CCN1C(=O)/C(=C/c2ccccc2)NC1=S
*A* > 100 µM (inactive)

*Q* Also check COc1ccc2cc3c4cc5c(cc4cc[n+]3cc2c1OC)OCO5
*A* 20.6 µM (inactive)

*Q* Same question, COC(=O)NCCc1n[nH]c2c1C(=O)C=C(Nc1ccccc1)C2=O this time
*A* 15.4 µM (inactive)

*Q* Repeat with O=C1CC[C@H](NC(=O)Cc2ccccc2)C(=O)N1 [ANTINEOPLASTON A10]
*A* > 1250 µM (inactive)

*Q* Further, for CC1=CCC23C(C1)OC(Br)(C=CC2(C)O)C3(C)C (stereo not given) ?
*A* > 100 µM (inactive)

*Q* Now this one: S=c1nc(N/N=C/c2cccs2)c2cn[nH]c2[nH]1
*A* 31.5 µM (inactive)

*Q* Also CCO[C@@]1(COCc2ccccc2)OC(=O)C[C@@H]1N1C(=O)OC[C@@H]1c1ccccc1 , if possible.
*A* > 100 µM (inactive)

*Q* Also check CC(=O)N1N(c2ccc([N+](=O)[O-])cc2)C(=O)C1(C)C
*A* 19.2 µM (inactive)

====

test system: DMS-114; assay: NCI tumour cell line growth inhibition, 48 h
Active and inactive are the calls of the source. Rule as the data show it: active = GI50 up to about 1.1 µM and inactive = higher.
Field 'call' accepts active, inactive

Solved cases (5 shown):
*Q* // param item: CN(C)c1ccc(C2CC(=O)C(C#N)=C(c3ccccc3)NN2C)cc1 (stereo not given) ; yields the recorded call
*A* inactive

*Q* Likewise for COC(=O)c1ccccc1N(C(=O)c1ccccc1)c1ccccc1C ?
*A* inactive

*Q* Also CCNc1c(C(=O)N(CC)CC)c(=O)[nH]c2ncccc12 ?
*A* inactive

*Q* // next record C=CCC12CCC(=O)[C@@]1(C)CC=C(O)C2=O (stereo not given in full)
*A* inactive

*Q* Again, but for O=C(Cc1ccc(F)cc1)NC1=C(Cl)C(=O)c2ccccc2C1=O
*A* active

Continuing:
*Q* Hi, do you know how COC(=O)C1C=CCON2CCc3c(n(S(=O)(=O)c4ccccc4)c4ccccc34)C12 (stereo not given) came out in this test?
*A* inactive

*Q* Next molecule up: COc1ccc(C(=C(C#N)C#N)c2ccc(OC)cc2)cc1
*A* inactive

*Q* And for O=C(c1ccc(Cl)cc1)N(C(=S)N1CCN(c2ccccc2)CC1)C1CCCCC1 ?
*A* inactive

*Q* Continue with Cc1ccc(C2CC(c3cccc([N+](=O)[O-])c3)=Nc3ccccc3S2)cc1 (stereo not given)
*A* inactive

*Q* Similarly, Cc1c2cc[n+](C)cc2c(C)c2c1[nH]c1ccc(OCC(F)(F)F)cc12 ?
*A* inactive

*Q* How about this molecule: COC(=O)c1cc2c(=O)n(C)c3ccccc3n2c1C(=O)OC
*A* inactive
